Task for the reader: assign each of the following sequences its reported self-splicing fitness (ln).
Assay: self-splicing fitness, log relative to wild type (ln ratio); higher = more splicing; Tetrahymena group I intron in knt gene, E. coli kanamycin selection, DiMSum; sequences stand for … in CUCUCU…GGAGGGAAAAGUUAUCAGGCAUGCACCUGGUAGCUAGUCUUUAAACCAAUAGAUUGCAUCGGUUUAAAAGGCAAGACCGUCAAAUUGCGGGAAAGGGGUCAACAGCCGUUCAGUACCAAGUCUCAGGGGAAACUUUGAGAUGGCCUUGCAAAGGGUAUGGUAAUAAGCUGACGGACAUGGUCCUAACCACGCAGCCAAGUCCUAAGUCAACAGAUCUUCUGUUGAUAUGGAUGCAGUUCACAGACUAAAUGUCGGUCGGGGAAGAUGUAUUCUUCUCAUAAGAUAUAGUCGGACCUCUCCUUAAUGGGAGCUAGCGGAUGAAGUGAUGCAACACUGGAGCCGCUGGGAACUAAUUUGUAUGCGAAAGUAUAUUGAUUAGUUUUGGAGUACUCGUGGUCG;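 note: selection with 25 µg/mL kanamycin versus none on LB agar overnight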
Conditions: 37 °C
Give bare numbers.

Study these solved cases before continuing.
primary_sequence | self-splicing fitness (ln)
CGGCAGCAAUAUUACGACCU | -0.0632
AGGUAGCAAUAUUACGGCCU | -2.6
CCACAGCAAUAUUACGUGCU | -2.88
AGGCAGCAAUAUUACGGUCU | -2.61
GGCGAGCAAUAUUACGAUCG | -0.978

# batch size: 2; output self-splicing fitness (ln) per entry
1. UCCCAGCAAUAUUACGAGAG
2. AACAAGCAAUAUUACGCAGC

Result:
-2.14
-2.53

====

Assay: self-splicing fitness, log relative to wild type (ln ratio); higher = more splicing; Tetrahymena group I intron in knt gene, E. coli kanamycin selection, DiMSum; sequences stand for … in CUCUCU…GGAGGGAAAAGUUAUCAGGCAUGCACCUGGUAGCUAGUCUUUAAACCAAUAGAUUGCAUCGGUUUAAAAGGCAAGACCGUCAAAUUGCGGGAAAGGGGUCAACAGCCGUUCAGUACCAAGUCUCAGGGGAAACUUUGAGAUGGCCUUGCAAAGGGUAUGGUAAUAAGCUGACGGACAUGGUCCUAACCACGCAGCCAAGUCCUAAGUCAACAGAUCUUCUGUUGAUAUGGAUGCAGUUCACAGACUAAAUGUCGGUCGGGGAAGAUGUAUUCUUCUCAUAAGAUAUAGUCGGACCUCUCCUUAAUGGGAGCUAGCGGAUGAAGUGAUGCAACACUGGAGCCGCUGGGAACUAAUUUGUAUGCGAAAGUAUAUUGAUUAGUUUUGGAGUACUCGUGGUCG
Conditions: 30 °C
assay_readout: self-splicing fitness (ln)

Study these solved cases before continuing.
primary_sequence | self-splicing fitness (ln)
UGUAAGCAAUAUUACGUAAG | -1.86
CUGUAGCAAUAUUACGGGUC | -4.47
CAGCAGCAAUAUUACGUUAG | -1.17

# batch size: 2; output self-splicing fitness (ln) per entry
1. CACAAGCAAUAUUACGACCU
2. CCCGAGCAAUAUUACGAAUC

Result:
-1.71
-1.59

# batch size: 3; output self-splicing fitness (ln) per entry
1. UGGUAGCAAUAUUACGUGAU
2. AAGCAGCAAUAUUACGGGUU
3. GCUAAGCAAUAUUACGCAUU

Result:
[-2.76, -2.1, -0.91]

====

Assay: self-splicing fitness, log relative to wild type (ln ratio); higher = more splicing; Tetrahymena group I intron in knt gene, E. coli kanamycin selection, DiMSum; sequences stand for … in CUCUCU…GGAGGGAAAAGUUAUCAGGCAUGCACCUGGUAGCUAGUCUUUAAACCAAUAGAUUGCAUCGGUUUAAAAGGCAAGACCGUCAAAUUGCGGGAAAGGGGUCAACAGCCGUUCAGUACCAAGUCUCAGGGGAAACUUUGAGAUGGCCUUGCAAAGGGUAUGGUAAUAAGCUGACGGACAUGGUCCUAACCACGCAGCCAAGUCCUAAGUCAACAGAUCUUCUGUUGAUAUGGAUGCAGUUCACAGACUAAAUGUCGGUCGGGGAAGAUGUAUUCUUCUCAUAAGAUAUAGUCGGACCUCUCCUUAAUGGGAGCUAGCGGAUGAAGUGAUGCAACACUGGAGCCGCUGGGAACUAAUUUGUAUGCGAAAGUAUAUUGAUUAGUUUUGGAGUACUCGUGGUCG
Conditions: 37 °C
Would you mind labelling by self-splicing fitness (ln)? At or over -1 is yes, under is no.

// below: answered sequences
primary_sequence | label
AUUAAGCAAUAUUACGGACG | yes
UUAAAGCAAUAUUACGUCCC | yes
AUAUAGCAAUAUUACGAUGG | yes
CAUUAGCAAUAUUACGCGCC | no
CACGAGCAAUAUUACGGCCA | no
CGCAAGCAAUAUUACGCCUA | yes

# next sequence below
Request: Could you tell me if the measured self-splicing fitness (ln) of GUCAAGCAAUAUUACGCCCG reaches -1 or more?
Result: no

====

Assay: self-splicing fitness, log relative to wild type (ln ratio); higher = more splicing; Tetrahymena group I intron in knt gene, E. coli kanamycin selection, DiMSum; sequences stand for … in CUCUCU…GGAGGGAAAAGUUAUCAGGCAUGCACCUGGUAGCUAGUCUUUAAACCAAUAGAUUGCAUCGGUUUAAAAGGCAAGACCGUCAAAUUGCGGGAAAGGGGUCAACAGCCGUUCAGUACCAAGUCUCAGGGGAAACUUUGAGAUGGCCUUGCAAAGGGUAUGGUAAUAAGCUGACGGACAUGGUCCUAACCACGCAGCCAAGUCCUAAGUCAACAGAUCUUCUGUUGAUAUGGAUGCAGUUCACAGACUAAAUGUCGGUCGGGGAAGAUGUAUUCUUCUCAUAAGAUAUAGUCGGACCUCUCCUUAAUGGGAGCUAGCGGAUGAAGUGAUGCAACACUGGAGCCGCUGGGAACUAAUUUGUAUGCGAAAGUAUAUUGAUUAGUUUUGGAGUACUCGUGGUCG
Conditions: 30 °C
Would you mind labelling by self-splicing fitness (ln)? At or over -3 is Condition met, under is Condition not met.

Request: Could you tell me if the measured self-splicing fitness (ln) of UUGCAGCAAUAUUACGCACC reaches -3 or more?
Result: Condition met

Request: Could you tell me if the measured self-splicing fitness (ln) of GCGUAGCAAUAUUACGUAGU reaches -3 or more?
Result: Condition met

Request: Could you tell me if the measured self-splicing fitness (ln) of GGAGAGCAAUAUUACGCUGG reaches -3 or more?
Result: Condition met

Request: Could you tell me if the measured self-splicing fitness (ln) of UAAAAGCAAUAUUACGACAU reaches -3 or more?
Result: Condition met

Request: Could you tell me if the measured self-splicing fitness (ln) of GAAUAGCAAUAUUACGGUUC reaches -3 or more?
Result: Condition not met

====

Assay: self-splicing fitness, log relative to wild type (ln ratio); higher = more splicing; Tetrahymena group I intron in knt gene, E. coli kanamycin selection, DiMSum; sequences stand for … in CUCUCU…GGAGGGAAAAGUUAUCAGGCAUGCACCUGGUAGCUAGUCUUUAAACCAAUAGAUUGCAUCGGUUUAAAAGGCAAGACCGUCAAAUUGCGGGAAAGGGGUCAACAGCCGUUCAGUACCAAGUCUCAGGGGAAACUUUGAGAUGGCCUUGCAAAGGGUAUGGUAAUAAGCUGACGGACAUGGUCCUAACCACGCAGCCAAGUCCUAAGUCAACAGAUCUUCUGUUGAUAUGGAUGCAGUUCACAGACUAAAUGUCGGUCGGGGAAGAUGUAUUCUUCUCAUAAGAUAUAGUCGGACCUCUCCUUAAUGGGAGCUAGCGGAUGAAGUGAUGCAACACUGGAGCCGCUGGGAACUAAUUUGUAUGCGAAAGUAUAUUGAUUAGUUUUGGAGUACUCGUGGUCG
Settings: 37 °C
Would you mind labelling by self-splicing fitness (ln)? At or over -1 is true, under is false.

primary_sequence | label
AGAUAGCAAUAUUACGAACA | true
GCCUAGCAAUAUUACGCAAA | false
CAAUAGCAAUAUUACGGUCG | true
ACACAGCAAUAUUACGUCAA | false
ACGAAGCAAUAUUACGGCAU | true

Request: Could you tell me if the measured self-splicing fitness (ln) of UGCUAGCAAUAUUACGGUGC reaches -1 or more?
Result: false

Request: Could you tell me if the measured self-splicing fitness (ln) of GCGUAGCAAUAUUACGGACA reaches -1 or more?
Result: true

Request: Could you tell me if the measured self-splicing fitness (ln) of AGCCAGCAAUAUUACGGAUU reaches -1 or more?
Result: true

====

Assay: self-splicing fitness, log relative to wild type (ln ratio); higher = more splicing; Tetrahymena group I intron in knt gene, E. coli kanamycin selection, DiMSum; sequences stand for … in CUCUCU…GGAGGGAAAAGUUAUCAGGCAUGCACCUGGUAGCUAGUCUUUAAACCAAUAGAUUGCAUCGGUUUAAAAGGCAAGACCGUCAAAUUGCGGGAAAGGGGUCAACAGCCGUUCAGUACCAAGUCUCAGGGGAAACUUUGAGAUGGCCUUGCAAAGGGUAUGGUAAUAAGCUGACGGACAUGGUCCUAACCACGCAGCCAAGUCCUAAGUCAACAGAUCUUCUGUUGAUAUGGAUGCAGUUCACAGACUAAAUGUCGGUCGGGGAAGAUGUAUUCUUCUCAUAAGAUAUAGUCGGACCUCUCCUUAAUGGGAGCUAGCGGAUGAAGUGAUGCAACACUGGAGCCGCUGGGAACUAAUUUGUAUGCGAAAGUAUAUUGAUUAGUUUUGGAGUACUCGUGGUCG
Conditions: 37 °C
Task for the reader: assign each of the following sequences its reported self-splicing fitness (ln).
Numbers only.

primary_sequence | self-splicing fitness (ln)
GUUAAGCAAUAUUACGGGGA | -2.15
AGAAAGCAAUAUUACGGAUU | -0.867
ACAUAGCAAUAUUACGUUGG | -2.29
GGAUAGCAAUAUUACGAAUU | -1.57
CUAUAGCAAUAUUACGUGAA | -2.51

# batch size: 8; output self-splicing fitness (ln) per entry
1. GAGGAGCAAUAUUACGUGAA
2. CCUGAGCAAUAUUACGAUUU
3. CAACAGCAAUAUUACGUAAU
4. UCAGAGCAAUAUUACGUCGC
5. GUCCAGCAAUAUUACGAAAC
6. CUCAAGCAAUAUUACGCCCA
7. UUAGAGCAAUAUUACGGAUG
8. AAAAAGCAAUAUUACGCUCA

Result:
-1.74
-2.3
-2
-2.41
-0.568
-2.01
-0.15
0.0203
